Where do these numbers come from? They come from ChEMBL document CHEMBL1157539.

test system: Plasmodium falciparum; test: GSK_TCMDC: Inhibition of Plasmodium falciparum Dd2 in whole red blood cells, using parasite LDH activity as an index of growth. Test compounds present at 2uM; type: functional
This listing pairs compounds with measured Inhibition.
reported.metric: Inhibition (%)

CS(=O)(=O)c1ccc(CNCc2cccc(-c3cccc(-c4nc5ccccc5[nH]4)c3)c2)cc1.O=C(O)C(F)(F)F : 47
COc1ccc2nccc([C@@H](O)CN3CCC(NCc4cc5cc(OC(F)(F)F)ccc5[nH]4)CC3)c2c1.O=C(O)C(=O)O : 82
CC(=O)Nc1csc(-c2cnc(/C=C(\C)C[C@@H]3OC[C@H](C[C@@H]4O[C@H]4[C@@H](C)[C@H](C)O)[C@@H](O)[C@H]3O)o2)c1 : 8
CS(=O)(=O)Nc1ccc2[nH]cc(C3CCN(CCCCCNC(=O)/C=C/c4ccc(Cl)c(Cl)c4)CC3)c2c1 : 0
CCn1cc(-c2cc(C(=O)Nc3ccc(OC)cc3C)c3ccccc3n2)c(C)n1 : 100
CCOC(=O)c1c(CSc2ccccc2)oc2cc(CN(C)C)c(O)c(Cl)c12 : 70
Cn1nccc1C(=O)NCCNCc1cccc(-c2cccc(-c3nc4cc(C(F)(F)F)ccc4[nH]3)c2)c1.O=C(O)C(F)(F)F : 99
COc1ccc(NC(=O)[C@H](Cc2ccccc2)Nc2cc(C)nc(NCc3ccccc3C)n2)cc1.O=C(O)C(F)(F)F : 71

---

system: Plasmodium falciparum; assay: GSK_TCMDC: Inhibition of Plasmodium falciparum 3D7 in whole red blood cells, using parasite LDH activity as an index of growth. Test compounds present at 2uM; assay type: functional
This listing pairs compounds with measured Inhibition.
reported.metric: Inhibition (%)

COc1cc(C(=O)N2C(c3nccs3)C(C(=O)N(OC)C(C)c3ccccc3)CC2(CC(C)C)C(=O)OC(C)(C)C)ccc1C(C)(C)C (stereo not given) : 92
CCN(CC)CCNc1nc(C=Cc2ccc(Cl)cc2)nc2cc3ccccc3cc12 : 100
CCOc1ccc2c(=NN=Cc3ccc(OC)c(OC)c3)cc(C)[nH]c2c1 : 100
COc1ccc(N2CCN(CCCCNCc3ccc(NC(=O)c4cc(Cl)cc(Cl)c4)cc3)CC2)c(OC)c1 : 100
CC(C)CC(NC(=O)c1ccc(F)cc1)C(=O)N[C@H](/C=N/N1CCNC1=O)CC(C)C (stereo not given in full) : 89

---

test system: Plasmodium falciparum; experiment: GSK_TCMDC: Inhibition of Plasmodium falciparum Dd2 in whole red blood cells, using parasite LDH activity as an index of growth. Test compounds present at 2uM; assay type: functional
# label = Condition met if Inhibition >= 60% else Condition not met

Cc1c(C(=O)C2CC2CN2CCC(N3CCCC3)CC2)sc2ccccc12 (centres undefined) : Condition not met
C#CC(C)(CO)N1CCCC1 (centres undefined) : Condition not met
COc1cccc(-c2cnc(-c3ccncc3)nc2C2CCN(Cc3ccc(NC(C)=O)cc3)CC2)c1 : Condition not met
COc1ccc(-c2cccc(NC(=O)c3ccc(C#N)cc3)c2)cc1CN(C)CCN(C)C.O=C(O)C(F)(F)F : Condition not met
Cc1cc(N[C@@H](Cc2ccccc2)C(=O)NCCc2ccccc2)nc(NCc2ccccc2C)n1.O=C(O)C(F)(F)F : Condition met
CN1CCC(c2csc3ccc(NC(=O)Nc4ccc(-c5ccncc5)c5ccccc45)cc23)CC1 : Condition met
NS(=O)(=O)c1cccc(-c2ccc3nccc(-c4cccc(S(N)(=O)=O)c4)c3c2)c1 : Condition met
Fc1ccc2[nH]c(-c3cccc(-c4cccc(CNCCc5ccncc5)c4)c3)nc2c1.O=C(O)C(F)(F)F : Condition met

---

test system: Plasmodium falciparum; test: GSK_TCMDC: Inhibition of Plasmodium falciparum 3D7 in whole red blood cells, using parasite LDH activity as an index of growth. Test compounds present at 2uM; assay type: functional
reported.metric: Inhibition (%)

Cn1cncc1C(=O)Nc1ccc(-c2ccc(-c3nc4cc(C(F)(F)F)ccc4[nH]3)cc2)cc1 : 100
Cc1nc(C)c(-c2ccc(C(=O)c3ccc(Cl)cc3)cc2)c(O)c1Br : 97
COC(=O)Nc1cc(C(F)(F)F)ccc1N1CCCC(NS(=O)(=O)c2ccc(C(C)(C)C)cc2)C1 (centres undefined) : 97
CCOC(=O)c1ccc(NC(=O)c2ccccc2C(=O)O)cc1 : 92
O=S(=O)(c1cccc(Cl)c1F)N(CCC(O)(C(F)(F)F)C(F)(F)F)Cc1cccc(O)c1 : 100
Cc1cc(=O)[nH]c(-n2nc(C)cc2NC(=O)C(c2ccccc2)c2ccccc2)n1 : 96
COc1ccc2ncc(F)c(CCN3CCC(NCc4ccc5c(c4)CCO5)CC3)c2n1.Cl : 100
Oc1ccc2ccccc2c1C=NNc1nc(=Nc2ccccc2)[nH]c(=Nc2ccccc2)[nH]1 : 99
COCCn1c(Sc2ncnc3sccc23)nc2ccccc21 : 95
CCCCOc1ccc(-c2nc3ccccc3[nH]2)cc1 : 86
Br.CCCOc1ccc(OCCCON2C(=N)N=C(N)NC2(C)C)cc1 : 96
COc1cc(C)c(NC(=O)c2cccc3c(=O)c(C)c(-c4ccccc4)oc23)cc1OC : 86
CN1CCCC(CN2CCN(Cc3cccc(-c4csc(-c5nc6ccccc6[nH]5)c4)c3)CC2)C1.O=C(O)C(F)(F)F (centres undefined) : 100
CC[C@H](C)CNC(=O)c1ccnc(-c2ccc(CNC3Cc4ccccc4C3)cc2)c1.O=C(O)C(F)(F)F : 100
Cc1ccc2nc3c(cc(C(=O)NCc4ccccc4)c(=N)n3CCCn3ccnc3)c(=O)n2c1 : 93
Cc1ccc(C2CC(=O)CC(c3ccccn3)C2[N+](=O)[O-])cc1 (centres undefined) : 97
CCN1CCC(N(Cc2ccc(-c3ccc(C(F)(F)F)cc3)cc2)C(=O)Cn2c(SCc3cccc(F)c3F)cc(=O)c3ccccc32)C1.O=C(O)C(O)C(O)C(=O)O (centres undefined) : 90
O=C(Nc1ccc(OC2CCN(Cc3ccsc3)C2)c(Cl)c1)c1ccsc1.O=C(O)C(F)(F)F (centres undefined) : 85
CCCNC(=O)Nc1cc2cc(-c3cccc(CN4CCCCC4)c3)ccc2n2c(C)nnc12 : 100

---

This listing pairs molecules with measured Inhibition.
tested on: Plasmodium falciparum; assay: GSK_TCMDC: Inhibition of Plasmodium falciparum 3D7 in whole red blood cells, using parasite LDH activity as an index of growth. Test compounds present at 2uM; format: functional
reported.metric: Inhibition (%)

O=C(Nc1ccc(Oc2ccccc2)cc1)N(Cc1ccc(-c2ccc(CN3CCNCC3)cc2)cc1)C1CCN(Cc2ccccc2)CC1.O=C(O)C(F)(F)F : 100
COc1ccc(C2CC(=O)C3=C(C2)NC(C)=C(C(=O)OC(C)C)C3c2ccccc2F)cc1OC (centres undefined) : 100
Cc1noc(-c2ccccc2)c1NC(=O)NC1CCN(CCCCCNC(=O)/C=C/c2ccc(Cl)c(Cl)c2)CC1 : 93
CCCC(CNCc1cccc(OCC)c1)CNc1cc(=O)c2ccccc2[nH]1 (centres undefined) : 100
CCCCC(=O)Nc1nc2ccc([N+](=O)[O-])cc2s1 : 91
COc1cc2c(cc1OC)C(c1ccc(Br)cc1)CN(C)CC2.Cl (centres undefined) : 86
CN1CCN(c2cc(NC(=O)Nc3cccc(Cl)c3Cl)ccc2Cl)CC1.Cl : 100
O=C(Cc1cccc2ccccc12)N1CCc2cc3nccc(N4CCN5CCC[C@H]5C4)c3cc21 : 100
CCc1nc2c(N)nc(N)nc2nc1-c1ccc(OC)cc1 : 86

---

system: Plasmodium falciparum; experiment: GSK_TCMDC: Inhibition of Plasmodium falciparum 3D7 in whole red blood cells, using parasite LDH activity as an index of growth. Test compounds present at 2uM; type: functional
This listing pairs compounds with measured Inhibition.
reported.metric: Inhibition (%)

COc1cc2nc(N3CCC(CNC(=O)c4ccc(-c5ccc(C#N)cc5C)cc4)CC3)nc(N)c2cc1OC : 100
OC(CNc1ccnc(Nc2ccc(Cl)cc2)n1)c1cccc(C(F)(F)F)c1 (centres undefined) : 100
COc1ccc(-c2cccc(NC(=O)c3ccc(Cl)cc3)c2)cc1CN(C)CCN(C)C.O=C(O)C(F)(F)F : 99
COc1ccc(S(=O)(=O)NC2CCN(CCCOc3ccnc4cc(Cl)ccc34)C2)cc1OC (centres undefined) : 91
COc1ccc2nccc([C@@H](O)CN3CCC(NCc4ccc5nsnc5c4)CC3)c2c1.O=C(O)C(=O)O : 95
Fc1ccc2[nH]c(-c3ccc(-c4ccc(CNCc5ccccc5)cc4)cc3)nc2c1.O=C(O)C(F)(F)F : 100
COc1cccc(C(O)CNc2ccnc(Nc3ccc(Cl)cc3)n2)c1 (centres undefined) : 99
O=S(=O)(Nc1ccc(CCN2CCC(N3CCCCC3)CC2)cc1)c1ccc2ccccc2c1 : 100
CC(C)c1cc2c(cc1O)C(Cc1ccccc1Cl)N(C)CC2.Cl (centres undefined) : 97
Clc1ccc(Cl)c2[nH]c(CNCCCNc3nc4ccccc4[nH]3)cc12 : 100
O=C(Nc1ccc(-c2cccc(-c3nc4cc(C(F)(F)F)ccc4[nH]3)c2)cc1)Nc1ccc(F)c(F)c1F : 99
c1ccc(CN2CCC(Nc3ccc(-c4c[nH]nc4-c4ccccn4)nc3)CC2)cc1 : 97
O=C(NC1CCN(Cc2ccccc2)C1)c1ccc(Nc2ccc(Br)cc2)nc1.O=C(O)C(F)(F)F (centres undefined) : 94
Cn1c(Cc2ccccc2)nnc1Sc1ccc(C#N)c([N+](=O)[O-])c1 : 93
COc1ccc(NC(=O)[C@H](CC(C)C)Nc2cc(C)nc(NCCOc3ccccc3)n2)cc1.O=C(O)C(F)(F)F : 100
O=C(O)C(F)(F)F.c1ccc(CCNCc2ccc(-c3ccc(CNC4CCN(Cc5ccccc5)CC4)cc3)nc2)cc1 : 100
Cc1ccccc1C1CCN(C2CCC(NC(=O)/C=C/c3cc(F)ccc3C(F)(F)F)CC2)CC1 (centres undefined) : 98
Cn1c(Nc2cc(C(C)(C)C)on2)nc2cc(Nc3ccnc(Nc4cccc(CS(C)(=O)=O)c4)n3)ccc21 : 99
Cc1ccc2ccncc2c1N : 96
